MEASUREMENT DESCRIPTION: Antiproliferative activity against human SGC7901 cells after 72 hrs by MTT assay
Format: functional, cell-based
ASSAY CONDITIONS: SGC-7901, 72 h
pIC50: −log10 of the molar value.
MEASURED ATTRIBUTE: pIC50

Recorded results for 3 compounds are shown here.
SUBSTANCE SMILES: COc1ccc(/C=C/C(=O)O[C@@H]2O[C@@H]3O[C@@]4(C)CC[C@H]5[C@H](C)[C@H](OC(=O)/C=C/c6ccc(OC)cc6)C[C@@H]([C@H]2C)[C@@]35OO4)cc1
pIC50: 4.55

SUBSTANCE SMILES: O=c1[nH]cc(F)c(=O)[nH]1
pIC50: 4.92

SUBSTANCE SMILES: COc1cccc(/C=C/C(=O)O[C@@H]2O[C@@H]3O[C@@]4(C)CC[C@H]5[C@H](C)[C@H](O)C[C@@H]([C@H]2C)[C@@]35OO4)c1
pIC50: < 4.00

Exercise: # get_value(readout='pIC50', item= `C[C@@H]1[C@H](O)C[C@H]2[C@@H](C)[C@H](OC(=O)/C=C/c3ccccc3Cl)O[C@@H]3O[C@@]4(C)CC[C@@H]1[C@]32OO4` )
Key: < 4.00

Exercise: # get_value(readout='pIC50', item= `COc1ccc(/C=C/C(=O)O[C@@H]2O[C@@H]3O[C@@]4(C)CC[C@H]5[C@H](C)[C@H](O)C[C@@H]([C@H]2C)[C@@]35OO4)cc1OC` )
Key: < 4.00

Exercise: # get_value(readout='pIC50', item= `C[C@@H]1[C@H](O)C[C@H]2[C@@H](C)[C@H](OC(=O)/C=C/c3ccc(Br)cc3)O[C@@H]3O[C@@]4(C)CC[C@@H]1[C@]32OO4` )
Key: < 4.00

Exercise: # get_value(readout='pIC50', item= `C[C@@H]1[C@H](O)C[C@H]2[C@@H](C)[C@H](OC(=O)/C=C/c3ccc([N+](=O)[O-])cc3)O[C@@H]3O[C@@]4(C)CC[C@@H]1[C@]32OO4` )
Key: < 4.00

Exercise: # get_value(readout='pIC50', item= `C[C@@H]1[C@H](O)C[C@H]2[C@@H](C)[C@@H](O)O[C@@H]3O[C@@]4(C)CC[C@@H]1[C@]32OO4` )
Key: < 4.00

Exercise: # get_value(readout='pIC50', item= `C[C@@H]1[C@H](OC(=O)/C=C/c2c(Cl)cccc2Cl)C[C@H]2[C@@H](C)[C@H](OC(=O)/C=C/c3c(Cl)cccc3Cl)O[C@@H]3O[C@@]4(C)CC[C@@H]1[C@]32OO4` )
Key: 4.22

Exercise: # get_value(readout='pIC50', item= `C[C@H]1[C@@H](O)O[C@@H]2O[C@@]3(C)CC[C@H]4[C@H](C)CC[C@@H]1[C@@]24OO3` )
Key: < 4.00

Exercise: # get_value(readout='pIC50', item= `COc1ccc(/C=C/C(=O)O[C@@H]2O[C@@H]3O[C@@]4(C)CC[C@H]5[C@H](C)[C@H](O)C[C@@H]([C@H]2C)[C@@]35OO4)cc1` )
Key: < 4.00

Exercise: # get_value(readout='pIC50', item= `COc1ccc(/C=C/C(=O)O[C@@H]2O[C@@H]3O[C@@]4(C)CC[C@H]5[C@H](C)[C@H](OC(=O)/C=C/c6ccc(OC)c(OC)c6OC)C[C@@H]([C@H]2C)[C@@]35OO4)c(OC)c1OC` )
Key: 4.71
